Biological target: SaSiaT (Staphylococcus aureus)
Sequence (A0A0H2XJ46 entry or part of it): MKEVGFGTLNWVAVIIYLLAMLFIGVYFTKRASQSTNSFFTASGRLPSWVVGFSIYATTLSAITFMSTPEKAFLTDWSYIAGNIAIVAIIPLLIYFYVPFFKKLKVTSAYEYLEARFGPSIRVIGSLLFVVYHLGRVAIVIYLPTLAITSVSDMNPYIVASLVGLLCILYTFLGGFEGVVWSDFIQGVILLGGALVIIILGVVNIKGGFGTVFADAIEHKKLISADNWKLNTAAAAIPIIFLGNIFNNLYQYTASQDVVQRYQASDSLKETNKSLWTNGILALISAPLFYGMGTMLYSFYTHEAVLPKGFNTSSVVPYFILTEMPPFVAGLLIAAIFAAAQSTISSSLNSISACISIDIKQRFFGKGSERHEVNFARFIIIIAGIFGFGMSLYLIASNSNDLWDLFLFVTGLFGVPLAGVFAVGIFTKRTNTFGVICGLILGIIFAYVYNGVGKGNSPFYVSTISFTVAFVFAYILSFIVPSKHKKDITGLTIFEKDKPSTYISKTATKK
Assay: Isothermal titration calorimetry, SaSiaT
Format: binding
Details: ITC
Listing of recorded SaSiaT ΔG° by entry.
Give just the number in kcal/mol; leave the unit off.

Worked cases, answers included:
Query: Look up SaSiaT ΔG° for this molecule: CC(=O)NC1C(OCc2cc(F)cc(F)c2)CC(O)(C(=O)O)OC1C(O)C(O)CO (stereo not shown)
Result: -7.36

Query: Look up SaSiaT ΔG° for this molecule: CC(=O)NC1C(OCc2cc(Br)cc(Br)c2)CC(O)(C(=O)O)OC1C(O)C(O)CO (stereo not shown)
Result: -6.55

Query: Look up SaSiaT ΔG° for this molecule: CC(=O)N[C@H]1[C@H]([C@H](O)[C@H](O)CO)OC(O)(C(=O)O)C[C@@H]1O (stereo partly shown) [Neu5Ac, 5-N-acetyl neuraminic acid, reference compound]
Result: -5.31

Proceeding to the next molecule to report its SaSiaT ΔG°.
Query: Look up SaSiaT ΔG° for this molecule: CC(=O)NC1C(OCc2ccccc2)CC(O)(C(=O)O)OC1C(O)C(O)CO (stereo not shown)
Result: -6.91

From: paper PMC9295122
